These entries and their values trace back to ChEMBL document CHEMBL5257105.

# test.description: Cytotoxicity against human A549 cells
# Format: toxicity, cell-based
# condition.set: A549 cells
recorded.metric: CC50 (µM)
Please respond with the number in µM and leave the unit unwritten.

These solved cases illustrate the format of a correct answer.
{"structure.smiles": "Cc1cc(Cl)cc2sc(N(CCCn3ccnc3)CS(=O)(=O)c3ccccc3)nc12", "unit.abbreviation": "µM", "CC50": 23.3}
{"structure.smiles": "Cc1cc(Cl)cc2sc(N(CCCn3ccnc3)Cc3ccccc3)nc12", "unit.abbreviation": "µM", "CC50": 33.3}

Read the next record carefully.
Given the compound Cc1cc(Cl)cc2sc(N(CCCn3ccnc3)C(=O)C(C)C)nc12 , what is its reported CC50?
46.4
